Target: ΔF508-CFTR (Homo sapiens, UniProt P13569, DEL508-508)
Construct: host or cells: CFBE41o-, doxycycline-inducible
Sequence (P13569 with tags, fused parts or gaps DEL508-508): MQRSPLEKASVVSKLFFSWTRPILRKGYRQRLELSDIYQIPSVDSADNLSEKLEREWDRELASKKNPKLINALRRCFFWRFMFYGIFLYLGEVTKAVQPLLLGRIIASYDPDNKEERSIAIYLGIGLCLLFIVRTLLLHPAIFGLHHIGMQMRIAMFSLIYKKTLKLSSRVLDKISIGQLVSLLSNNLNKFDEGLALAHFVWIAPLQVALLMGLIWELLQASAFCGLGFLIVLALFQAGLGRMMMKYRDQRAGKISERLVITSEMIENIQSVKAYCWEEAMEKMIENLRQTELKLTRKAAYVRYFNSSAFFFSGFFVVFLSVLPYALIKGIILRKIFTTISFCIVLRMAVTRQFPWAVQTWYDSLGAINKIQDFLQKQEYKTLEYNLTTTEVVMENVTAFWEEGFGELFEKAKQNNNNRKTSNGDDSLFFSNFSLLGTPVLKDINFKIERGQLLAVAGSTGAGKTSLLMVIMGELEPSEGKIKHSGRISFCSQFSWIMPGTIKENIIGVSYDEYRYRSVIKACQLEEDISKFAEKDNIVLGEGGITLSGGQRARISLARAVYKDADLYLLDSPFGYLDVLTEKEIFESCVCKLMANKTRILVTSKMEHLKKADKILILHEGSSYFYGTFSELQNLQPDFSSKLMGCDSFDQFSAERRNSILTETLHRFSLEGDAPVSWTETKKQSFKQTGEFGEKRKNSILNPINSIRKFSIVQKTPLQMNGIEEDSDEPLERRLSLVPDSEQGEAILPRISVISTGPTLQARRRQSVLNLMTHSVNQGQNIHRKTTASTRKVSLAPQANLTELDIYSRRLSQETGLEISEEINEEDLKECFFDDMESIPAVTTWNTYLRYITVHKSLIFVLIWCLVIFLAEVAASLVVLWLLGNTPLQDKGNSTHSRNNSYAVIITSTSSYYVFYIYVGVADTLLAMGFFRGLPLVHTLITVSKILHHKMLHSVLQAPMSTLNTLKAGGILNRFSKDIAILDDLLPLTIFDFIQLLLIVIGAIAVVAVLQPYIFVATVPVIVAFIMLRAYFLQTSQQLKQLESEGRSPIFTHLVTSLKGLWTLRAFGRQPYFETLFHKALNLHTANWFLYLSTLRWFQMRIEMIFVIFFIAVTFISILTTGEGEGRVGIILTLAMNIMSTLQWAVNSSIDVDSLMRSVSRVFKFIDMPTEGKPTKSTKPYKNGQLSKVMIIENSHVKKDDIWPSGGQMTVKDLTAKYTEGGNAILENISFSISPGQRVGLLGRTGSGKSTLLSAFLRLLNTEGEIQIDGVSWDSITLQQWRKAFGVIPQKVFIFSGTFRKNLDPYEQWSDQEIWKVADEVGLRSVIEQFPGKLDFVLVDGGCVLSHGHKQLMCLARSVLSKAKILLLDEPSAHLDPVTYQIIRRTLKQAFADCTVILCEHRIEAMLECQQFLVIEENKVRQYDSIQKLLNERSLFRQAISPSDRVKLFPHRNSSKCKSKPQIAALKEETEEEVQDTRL
Experiment: CFTR cell surface levels using HRP-tagged ΔF508-CFTR expressing CFBE cells, intrinsic corrector capacity
Format: cell-based
Details: HRP-tagged ΔF508-CFTR expressing CFBE cells; intrinsic corrector capacity (no co-corrector); 33° C., 20 hours
Assign % Activation to each entry below.
Answers are plain numbers, in %.

See these solved cases before continuing.
N#CC1CCN(c2ccc(-c3cc(C(=O)O)nc4c3c(C3CCC3)nn4-c3ccnc(N4CCOCC4)c3)cn2)CC1 [compound 416] = 179.1
O=C(O)c1cc(N2CCC(N3CCCCC3)CC2)c2c(C3CCC3)nn(-c3ccccc3)c2n1 [compound 576] = 175.2

Go through the items and report each one's % Activation.
1. CC(=O)N1CC(Oc2nn(-c3ccccc3)c3nc(C(=O)O)cc(-c4ccc(N5CCOCC5)cc4)c23)C1 [compound 497]
2. O=C(O)c1cc(N2CCC(N3CCC(O)CC3)CC2)c2c(C3CCC3)nn(-c3ccc(F)cc3)c2n1 [compound 898]
3. O=C(O)c1cc(N2CCC(F)(CO)CC2)c2c(C3CCC3)nn(-c3ccccc3)c2n1 [compound 517]

**Result**
1: 24.76; 2: 231.6; 3: 82.63

Go through the items and report each one's % Activation.
1. O=C(O)c1cc(N2CCC(N3CCOCC3)CC2)c2c(C3CCC3)nn(-c3ccc(OC(F)(F)F)cc3)c2n1 [compound 909]
2. O=C(O)c1cc(N2CCC(N3CCC(F)(F)CC3)CC2)c2c(C3CCC3)nn(-c3ccc(F)cc3)c2n1 [compound 850]
3. O=C(O)c1cc(N2CC(F)(F)C[C@H]2CO)c2c(C3CCC3)nn(-c3ccccc3)c2n1 [compound 538]
4. O=C(O)c1cc(N2CCC(CN3CCC4(COC4)C3)CC2)c2c(C3CCC3)nn(-c3ccccc3)c2n1 [compound 842]

**Result**
1. 277.7
2. 234.4
3. 124.6
4. 162.5

====

Target: ΔF508-CFTR (Homo sapiens, UniProt P13569, DEL508-508)
Construct: host or cells: CFBE41o-, doxycycline-inducible
Test: CFTR cell surface levels using HRP-tagged ΔF508-CFTR expressing CFBE cells, intrinsic corrector capacity
Type: cell-based
Conditions: HRP-tagged ΔF508-CFTR CFBE41o- cells, compounds alone (intrinsic corrector capacity), 20 hours at 33° C.; positive control 3 μM corrector
Could you mark each record t if its % Activation falls strictly under 200%, and f if it equals or exceeds it?

Observe how each entry below is paired with its result.
N#CC1CCN(c2ccc(-c3cc(C(=O)O)nc4c3c(C3CCC3)nn4-c3cccc(N4CCCC4)c3)cc2)CC1 = f
CC(C)(C)OC(=O)N1CC(c2nn(-c3ccccc3)c3nc(C(=O)O)cc(-c4ccc(N5CCOCC5)cc4)c23)C1 = t
CC(C)c1nn(-c2ccc(OC(F)(F)F)cc2)c2nc(C(=O)O)cc(-c3ccc(N4CCOCC4)cc3)c12 = t
Cc1cccc(-n2nc(C(C)C)c3c(N4CCC(S(C)(=O)=O)CC4)cc(C(=O)O)nc32)c1 = f
Cc1nn(-c2ccccc2)c2nc(C(=O)O)cc(O[C@@H]3CCCN(C)C3)c12 = t

**Query** Record Cc1nn(-c2ccccc2)c2nc(C(=O)O)cc(OC3CCN(C)CC3)c12 : is its % Activation strictly below 200%?
**Result** t

**Query** Record COCC1CCN(c2cc(C(=O)O)nc3c2c(C(C)C)nn3-c2ccc(F)cc2)CC1 : is its % Activation strictly below 200%?
**Result** f

**Query** Record CNC(=O)c1nn(-c2ccccc2)c2nc(C(=O)O)cc(-c3ccc(N4CCOCC4)cc3)c12 : is its % Activation strictly below 200%?
**Result** t

**Query** Record COC1CN(c2cccc(-n3nc(C(C)C)c4c(-c5ccc(N6CCOCC6)cc5)cc(C(=O)O)nc43)c2)C1 : is its % Activation strictly below 200%?
**Result** f

**Query** Record Cc1nn(-c2ccccc2)c2nc(C(=O)O)cc(OCCC3CC(F)(F)C3)c12 : is its % Activation strictly below 200%?
**Result** t

**Query** Record CC(C)c1nn(-c2cccc(N3CCOCC3)c2)c2nc(C(=O)O)cc(-c3ccc(N(C)C4CCOCC4)cc3)c12 : is its % Activation strictly below 200%?
**Result** f

**Query** Record CC(C)(C)c1nn(C2CCCCC2)c2nc(C(=O)O)cc(-c3cnc(N4CCOCC4)nc3)c12 : is its % Activation strictly below 200%?
**Result** t

**Query** Record Cc1cccc(-n2nc(C(C)C)c3c(N4CC5CN(CC#N)CC5C4)cc(C(=O)O)nc32)c1 (centres unmarked) : is its % Activation strictly below 200%?
**Result** t
